# Test system: mice
# Measurement description: In vivo delivery of FLuc-mRNA lipid nanoparticles in mice, in vivo imaging (IVIS)
# Study conditions: DMG-PEG2000:DSPC:Chol:Lipid 1.40:11.15:38.95:48.50, N/P 18; IV; whole body scan
Measurement label: IVIS

Observe how each entry below is paired with its result.
Compound	IVIS
CCCCCCCCCCNC(=O)C(O)CN(C)CCN(C)CCN(C)CC(O)C(=O)NCCCCCCCCCC (stereo not shown)	4.28 × 10^5
CC/C=C\CCOCOCCCCCCOC(=O)C(O)CN(C)CCN(C)CCN(C)CC(O)C(=O)OCCCCCCOCOCC/C=C\CC (stereo not shown)	2.03 × 10^5
CCCCCCCCCCOC(=O)C(O)CN(C)CCN(C)CCN(C)CC(O)C(=O)OCCCCCCCCCC (stereo not shown)	4.52 × 10^5

The compound CCCCCCCCCCCCNC(=O)C(O)CN(C)CCN(C)CCN(C)CC(O)C(=O)NCCCCCCCCCCCC (stereo not shown) on mice: IVIS was 2.49 × 10^5

###

Each entry below carries its recorded IVIS.
# Test system: mice
# Measurement description: In vivo delivery of FLuc-mRNA lipid nanoparticles in mice, in vivo imaging (IVIS)
# Study conditions: Fluc-mRNA LNP; route IV; organ: lung; formulation, molar ratio and N/P as in the table
Form field (numeric): enter value without unit.

Compound	Test target	Experimental value
CCCCCCCCCCOC(=O)CCCNC(=O)C(O)CN(CCCN(C)CCCN(CC(O)C(=O)NCCCC(=O)OCCCCCCCCCC)CC(O)C(=O)NCCCC(=O)OCCCCCCCCCC)CC(O)C(=O)NCCCC(=O)OCCCCCCCCCC (centres unmarked)	mice	2.74E+08
CCCCCCC(CCCCCC)C(=O)OCCCCNC(=O)C(O)CN(CCCN(CC(O)C(=O)NCCCCOC(=O)C(CCCCCC)CCCCCC)CC(O)C(=O)NCCCCOC(=O)C(CCCCCC)CCCCCC)CCCN(CC(O)C(=O)NCCCCOC(=O)C(CCCCCC)CCCCCC)CC(O)C(=O)NCCCCOC(=O)C(CCCCCC)CCCCCC (centres unmarked)	mice	3.40E+07
CCCCCCCC(CCCCCCC)OC(=O)CCCNC(=O)C(O)CN(CCN(C)CCN(CC(O)C(=O)NCCCC(=O)OC(CCCCCCC)CCCCCCC)CC(O)C(=O)NCCCC(=O)OC(CCCCCCC)CCCCCCC)CC(O)C(=O)NCCCC(=O)OC(CCCCCCC)CCCCCCC (centres unmarked)	mice	1.52E+07
CCCCCCC(CCCCCC)C(=O)NCCNC(=O)C(O)CN(CCCN(CC(O)C(=O)NCCNC(=O)C(CCCCCC)CCCCCC)CC(O)C(=O)NCCNC(=O)C(CCCCCC)CCCCCC)CCCN(CC(O)C(=O)NCCNC(=O)C(CCCCCC)CCCCCC)CC(O)C(=O)NCCNC(=O)C(CCCCCC)CCCCCC (centres unmarked)	mice	4.31E+05

# IVIS (compound: CCCCCCC(CCCCCC)C(=O)NCCNC(=O)C(O)CN(CCN(C)CCN(CC(O)C(=O)NCCNC(=O)C(CCCCCC)CCCCCC)CC(O)C(=O)NCCNC(=O)C(CCCCCC)CCCCCC)CC(O)C(=O)NCCNC(=O)C(CCCCCC)CCCCCC (centres unmarked) ) is 8.80E+06

So, CCCCCCCCC(CCCCCC)C(=O)OCCCCNC(=O)C(O)CN(CCCN(CC(O)C(=O)NCCCCOC(=O)C(CCCCCC)CCCCCCCC)CC(O)C(=O)NCCCCOC(=O)C(CCCCCC)CCCCCCCC)CCCN(CC(O)C(=O)NCCCCOC(=O)C(CCCCCC)CCCCCCCC)CC(O)C(=O)NCCCCOC(=O)C(CCCCCC)CCCCCCCC (centres unmarked) ? Its IVIS was 7.82E+05

Value of measured IVIS for the entry CCCCCCC(CCCCCC)C(=O)OCCCCNC(=O)C(O)CN(CCN(C)CCN(CC(O)C(=O)NCCCCOC(=O)C(CCCCCC)CCCCCC)CC(O)C(=O)NCCCCOC(=O)C(CCCCCC)CCCCCC)CC(O)C(=O)NCCCCOC(=O)C(CCCCCC)CCCCCC (centres unmarked) : 4.43E+06

Recorded result, CCCCCCCCN(C)C(=O)C(O)CN(CCN(C)CCN(CC(O)C(=O)N(C)CCCCCCCC)CC(O)C(=O)N(C)CCCCCCCC)CC(O)C(=O)N(C)CCCCCCCC (centres unmarked) , IVIS: 2.38E+05
